- Test system: SF-295 CNS
- EXPERIMENTAL_DETAILS: NCI tumour cell line growth inhibition, 48 h
Each entry below carries its reported GI50.

Reference set (3 entries):
# MOLECULE, RESULT
data = [
    ("COc1cc(-c2nn(-c3cccc(NC(=O)CCN4CCN(C)CC4)c3)cc2-c2ccncc2)ccc1Cl", "968 nM"),
    ("Cn1cc(C2=C(c3c(S(C)=O)n(C)c4ccccc34)C(=O)NC2=O)c2ccccc21 (centres undefined)", "5930 nM"),
    ("Cc1cn2c(/C=C3/C(=O)Nc4ccc(Cl)cc43)c(C)nc2s1", "871 nM"),
]

GI50 lookup needed for O=C(Nc1ccccc1)Nc1ccc(Cl)c(Cl)c1 , thanks.
2890 nM
